Source listed as patent US9163018B2.

test-target: Abeta:Zn (25:50 μM) Synthetic Aggregations (Homo sapiens)
Construct: PB Compound Mediated Dissolution of Aggregated Abeta 1-42
Sequence (P05067 672-713 limits assumed): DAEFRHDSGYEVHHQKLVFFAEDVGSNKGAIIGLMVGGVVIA
test-description: Disaggregation of Abeta:Zn synthetic aggregates (ThT fluorescence)
study-conditions: Abeta:Zn 25:50 μM aggregates
property-measured: EC50 (µM)
Just the number in µM, nothing appended.

>>> measured_value("CC(C)n1cnc2c(O)c(I)ccc2c1=O")
4.7
>>> measured_value("CCc1cnc2c(O)cccn2c1=S")
4.1
>>> measured_value("CCCCc1cnc2c(O)c(I)ccn2c1=O")
7.2
>>> measured_value("Oc1c(Br)cc(Br)c2cccnc12")
5

Shift focus to the following entry.
Briefly, EC50 measured for Nc1ccccc1NC(=O)c1cc(O)c2cccc(O)c2n1 : 18.4
